Molecular target: UniProtKB P15309
Sequence (P15309 whole entry): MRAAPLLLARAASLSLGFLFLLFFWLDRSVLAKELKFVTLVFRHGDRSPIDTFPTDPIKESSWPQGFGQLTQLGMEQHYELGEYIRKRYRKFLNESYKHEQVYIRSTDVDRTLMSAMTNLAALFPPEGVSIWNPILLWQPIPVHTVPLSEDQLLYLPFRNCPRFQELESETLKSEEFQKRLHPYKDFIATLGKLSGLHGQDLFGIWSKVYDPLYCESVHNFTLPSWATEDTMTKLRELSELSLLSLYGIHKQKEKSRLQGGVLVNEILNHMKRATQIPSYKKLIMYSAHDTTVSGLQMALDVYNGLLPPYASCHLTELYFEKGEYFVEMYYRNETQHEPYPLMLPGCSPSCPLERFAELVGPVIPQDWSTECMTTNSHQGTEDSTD
Assay: Inhibition of human prostatic acid phosphatase was determined as inhibition of the hydrolysis of tyrosine phosphate
quantity: IC50 (µM)

Q: Look up IC50 for this compound: `O=P(O)(O)Cc1cccc(C(F)(F)F)c1`
Result: 88

(1) O=P(O)(O)C1c2ccccc2CCc2ccccc21
(2) O=P(O)(O)C(Cc1ccc(-c2ccccc2)cc1)c1ccccc1 (stereo not given)
Q: Could you please tell me which of these two has the higher IC50: 1 or 2 ? Identify your pick by its label.
Result: 1
(1: 94 µM, 2: 16 µM)

Source of measurements: ChEMBL document CHEMBL1128966
